Each recorded value in this set is attributed to patent US20200399712A1.

This section presents molecules with their documented number of reactions under 30 HPV-16 copies values.
Test system: HPV-16 genome
Test: qPCR sensitivity against HPV-16 copy number (known-copy HPV-16 DNA among 10 ng normal human DNA)
Settings: samples tested 3 times, 10 ng DNA from healthy individual
observation_type: number of reactions under 30 HPV-16 copies (reactions)

>  <molecule>
E7: previously designed (historical) HPV-16 E7 primers and Taqman probe, SEQ ID NO: 10-12; part of CLIA test (nucleic acid, Taqman probe, labels not given here, part of CLIA test) DNA 1: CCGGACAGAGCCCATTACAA DNA 2: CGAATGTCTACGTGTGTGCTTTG DNA 3: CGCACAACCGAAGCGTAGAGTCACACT

>  <value_observed>
3

$$$$
>  <molecule>
BR E1-4: HPV-16 E1 region primer/probe set, SEQ ID NO: 37-39 (nucleic acid, chemistry not given here) DNA 1: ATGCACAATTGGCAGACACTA DNA 2: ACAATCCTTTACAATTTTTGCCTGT DNA 3: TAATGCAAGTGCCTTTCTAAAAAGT

>  <value_observed>
3

$$$$
>  <molecule>
HR E5L2-4: primer/probe set for junction between E5 and L2, SEQ ID NO: 55-57 (same as SEQ ID NO: 4-6) (nucleic acid, chemistry not given here) DNA 1: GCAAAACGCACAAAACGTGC DNA 2: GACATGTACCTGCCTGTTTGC DNA 3: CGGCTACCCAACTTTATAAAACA

>  <value_observed>
3

$$$$
